Where do these numbers come from? They come from patent US20210246166A1.

Target: T1, recombinant human MASP1 active protease (amino acids 297-699, C-terminal His Tag) (human, UniProt P48740 297-699)
T1 sequence: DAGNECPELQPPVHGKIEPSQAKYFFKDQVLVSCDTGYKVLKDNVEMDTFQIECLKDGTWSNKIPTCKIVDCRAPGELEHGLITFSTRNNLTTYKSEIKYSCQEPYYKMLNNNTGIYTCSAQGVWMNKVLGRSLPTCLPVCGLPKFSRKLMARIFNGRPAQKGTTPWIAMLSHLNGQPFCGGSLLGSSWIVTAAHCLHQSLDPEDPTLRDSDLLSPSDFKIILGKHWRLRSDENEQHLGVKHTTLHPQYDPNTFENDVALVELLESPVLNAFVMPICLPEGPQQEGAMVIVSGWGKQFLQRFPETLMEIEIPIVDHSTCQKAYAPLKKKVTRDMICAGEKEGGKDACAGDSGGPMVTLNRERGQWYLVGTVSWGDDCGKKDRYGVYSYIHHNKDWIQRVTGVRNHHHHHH
Assay: cell-based or functional assay
Bridge positions count the residues as written; N and C are the ends. Square brackets hold non-standard residues; d marks the D form. Ends that are not written are not given here. PEG9(31 atoms) = 1-amino-3,6,9,12,15,18,21,24,27-nonaoxatriacontan-30-oic acid; Pro(3S,4R-methano) = O=C(O)[C@H]1NC[C@@H]2C[C@@H]21; Oic = O=C(O)[C@@H]1C[C@@H]2CCCC[C@@H]2N1; NMeI = CC[C@H](C)[C@H](NC)C(=O)O; tBuAla = CC(C)(C)C[C@H](N)C(=O)O; Pen = CC(C)(S)[C@H](N)C(=O)O; NMeC = CN[C@@H](CS)C(=O)O; Sar = CNCC(=O)O
test-readout: human MASP1 IC50 (nM)

binder	test-readout	readout-value
AICSRS[tBuAla]P[Oic]ICIPD-NH2 (disulfide 3-11; also: HCl salt) [AIC+SRS-((tBu)A)-P-(Oic)-IC+IPD-NH2 (HCl salt)]	human MASP1 IC50	2.5
[Sar]ICSRSL[Pro(3S,4R-methano)]PI[Pen]IPE-NH2 (disulfide 3-11; N-terminus assumed; SMILES CC[C@H](C)[C@H](NC(=O)CNC)C(=O)N[C@H]1CSSC(C)(C)[C@@H](C(=O)N[C@H](C(=O)N2CCC[C@H]2C(=O)N[C@@H](CCC(=O)O)C(N)=O)[C@@H](C)CC)NC(=O)[C@H]([C@@H](C)CC)NC(=O)[C@@H]2CCCN2C(=O)[C@@H]2[C@H]3C[C@H]3CN2C(=O)[C@H](CC(C)C)NC(=O)[C@H](CO)NC(=O)[C@H](CCCNC(=N)N)NC(=O)[C@H](CO)NC1=O) [((N-Me)G)-IC+SRSL-((1S,2S,5R)-3-azabicyclo[3.1.0]hexane-2-carboxylic acid)-PI-(Pen)+IPE-NH2]	human MASP1 IC50	2.5
[Sar]ICSRSLP[Oic]I[Pen]IP[PEG9(31 atoms)]-NH2 (disulfide 3-11) [((N-Me)G)-IC+SRSLP-(Oic)-I-(Pen)+IP-(PEG9(31 atoms))-NH2]	human MASP1 IC50	3.7
KICSRS[tBuAla]PPI[NMeC]IPD-NH2 (disulfide 3-11; N-terminus assumed; SMILES CC[C@H](C)[C@H](NC(=O)[C@@H](N)CCCCN)C(=O)N[C@H]1CSSC[C@@H](C(=O)N[C@H](C(=O)N2CCC[C@H]2C(=O)N[C@@H](CC(=O)O)C(N)=O)[C@@H](C)CC)N(C)C(=O)[C@H]([C@@H](C)CC)NC(=O)[C@@H]2CCCN2C(=O)[C@@H]2CCCN2C(=O)[C@H](CC(C)(C)C)NC(=O)[C@H](CO)NC(=O)[C@H](CCCNC(=N)N)NC(=O)[C@H](CO)NC1=O) [KIC+SRS-((tBu)A)-PPI-((N-Me)C)+IPD-NH2]	human MASP1 IC50	1.65
[Sar][NMeI]CSRS[tBuAla]PPI[Pen]I-NH2 (disulfide 3-11; N-terminus assumed; SMILES CC[C@H](C)[C@H](NC(=O)[C@H]1NC(=O)[C@H]([C@@H](C)CC)NC(=O)[C@@H]2CCCN2C(=O)[C@@H]2CCCN2C(=O)[C@H](CC(C)(C)C)NC(=O)[C@H](CO)NC(=O)[C@H](CCCNC(=N)N)NC(=O)[C@H](CO)NC(=O)[C@@H](NC(=O)[C@H]([C@@H](C)CC)N(C)C(=O)CNC)CSSC1(C)C)C(N)=O) [((N-Me)G)-((N-Me)I)-C+SRS-((tBu)A)-PPI-(Pen)+I-NH2]	human MASP1 IC50	2.7
